measurement target: T1, IL-1β (UniProt P01584 117-269)
T1 construct: Antigen immobilised on the Biacore chip
protocol summary: Biacore, periplasmic extract

{"columns": ["binder", "binding result"],
 "data": [
  ["XPA23 light chain S53D (Fab, V domains shown) VH: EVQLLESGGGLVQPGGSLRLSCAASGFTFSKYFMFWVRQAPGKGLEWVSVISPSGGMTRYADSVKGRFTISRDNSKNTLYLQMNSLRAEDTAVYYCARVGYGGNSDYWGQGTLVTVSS VL: DIQMTQSPSSVSASVGDRLTIICRASQDINRWLAWYQQTPGNAPKLLIHSATDLQSGVPSRFSGSGSGTDFTLTINSLQPEDFATYYCQQADSFPLTFGGGTKVEIK", "no binding"],
  ["XPA23 light chain A91R (Fab, V domains shown) VH: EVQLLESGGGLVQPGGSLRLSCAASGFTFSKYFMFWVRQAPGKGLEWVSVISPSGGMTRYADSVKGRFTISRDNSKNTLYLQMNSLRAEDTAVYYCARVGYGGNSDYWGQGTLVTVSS VL: DIQMTQSPSSVSASVGDRLTIICRASQDINRWLAWYQQTPGNAPKLLIHSATSLQSGVPSRFSGSGSGTDFTLTINSLQPEDFATYYCQQRDSFPLTFGGGTKVEIK", "no binding"]
]}
